inhibition of R4A binding, DWEYS overview
system: lupus anti-dsDNA monoclonal antibody, R4A; assay: Competitive ELISA, R4A binding to bound DWEYS peptide; set-up: species or system mouse; conditions: competitive ELISA, bound D-DWEYS; at the most effective concentration of compound
The reply should contain only the number, in %.

Previously resolved entries follow.
compound	result.value
Cc1cccc(C)c1OCC(=O)N[C@@H](Cc1ccccc1)[C@@H](O)C[C@H](Cc1ccccc1)NC(=O)[C@H](C(C)C)N1CCCNC1=O [Lopinavir, lopinavir]	56
CC(C)(C)NCC1CC2CCCCC2CN1CC(O)C(Cc1ccccc1)NCC(CCN)NCC1Nc2ccccc2CC1O (stereo not drawn) [12W]	31
COC(=O)N[C@H](C(=O)N[C@@H](Cc1ccccc1)[C@@H](O)CN(Cc1ccc(-c2ccccn2)cc1)NC(=O)[C@@H](NC(=O)OC)C(C)(C)C)C(C)(C)C [Atazanavir, atazanavir]	46
CC(C)CN(C[C@@H](O)[C@H](Cc1ccccc1)NC(=O)O[C@H]1CO[C@H]2OCC[C@H]21)S(=O)(=O)c1ccc(N)cc1 [Darunavir, darunavir]	16
CC(C)(C)NC(=O)[C@@H]1C[C@@H]2CCCC[C@@H]2CN1C[C@@H](O)[C@H](Cc1ccccc1)NC(=O)[C@H](CC(N)=O)NC(=O)c1ccc2ccccc2n1 [Saquinavir, saquinavir]	33

Pending compound:
Challenge: Record request: inhibition of R4A binding, DWEYS value, item CC(C)c1nc(CN(C)C(=O)N[C@H](C(=O)N[C@@H](Cc2ccccc2)C[C@H](O)[C@H](Cc2ccccc2)NC(=O)OCc2cncs2)C(C)C)cs1 [Ritonavir, ritonavir]
Response given: 8
